System: WM266
protocol notes: MTT cell viability assay on metastatic melanoma cell line WM266
Type: cell-based, human
condition label: tumor selectivity index = IC50 on C3PV / IC50 on WM266
Listed below: TSI WM266 values for each entry.
Lab note: jot the number down without any unit.

Illustrative cases are given below, each with its answer.
Send back WM266 TSI WM266 of C[C@H]1[C@H](OC(=O)CCC(=O)O)O[C@@H]2O[C@@]3(C)CC[C@H]4[C@H](C)CC[C@@H]1[C@@]24OO3 [ARTA 3, artesunic acid, reference compound] only.
1.3

Send back WM266 TSI WM266 of C=C(C)[C@@H]1CC=C(CO)CC1 [Perillyl alcohol 5, perillyl alcohol, reference compound] only.
87.5

Here is another compound to look at.
Send back WM266 TSI WM266 of CC(=O)O[C@H]1C(=O)[C@@]2(C)[C@H]([C@H](OC(=O)c3ccccc3)[C@]3(O)C[C@H](OC(=O)[C@H](O)[C@@H](NC(=O)c4ccccc4)c4ccccc4)C(C)=C1C3(C)C)[C@]1(OC(C)=O)CO[C@@H]1C[C@@H]2O [PTX, paclitaxel, reference compound] only.
87.7

====

Listed below: TSI WM266 values for each entry.
Tested on: WM266
protocol notes: MTT cell viability assay on metastatic melanoma cell line WM266
Format: cell-based, human
condition label: tumor selectivity index = IC50 on C3PV / IC50 on WM266
Lab note: jot the number down without any unit.

Illustrative cases are given below, each with its answer.
Specify reported TSI WM266 for the compound shown: C=CCc1ccc(O[C@H]2O[C@@H]3O[C@@]4(C)CC[C@H]5[C@H](C)CC[C@@H]([C@H]2C)[C@@]35OO4)c(OC)c1 [Hybrid 9a]
0.7

Specify reported TSI WM266 for the compound shown: C=CCc1ccc(O)c(OC)c1 [Eugenol 4, eugenol, reference compound]
1.1

Specify reported TSI WM266 for the compound shown: CC(C)=CCC[C@H](C)CCO[C@H]1O[C@@H]2O[C@@]3(C)CC[C@H]4[C@H](C)CC[C@@H]([C@H]1C)[C@@]24OO3 [Hybrid 9e]
22.7

Specify reported TSI WM266 for the compound shown: C=C(C)C1CC=C(COC(=O)CCC(=O)OC2OC3OC4(C)CCC5C(C)CCC(C2C)C35OO4)CC1 (stereo not shown) [Hybrid 10b]
1015.0

Specify reported TSI WM266 for the compound shown: CC(C)=CCCC(C)=CCOC1OC2OC3(C)CCC4C(C)CCC(C1C)C24OO3 (stereo not shown) [Hybrid 9f]
45.9

More entries:
Specify reported TSI WM266 for the compound shown: C=C(C)C1CC=C(CO[C@H]2O[C@@H]3O[C@@]4(C)CC[C@H]5[C@H](C)CC[C@@H]([C@H]2C)[C@@]35OO4)CC1 (stereo partly shown) [Hybrid 9b]
1.5

Specify reported TSI WM266 for the compound shown: CC(C)=CCCC(C)CCO (racemic) [(±)-citronellol (±)-6, (±)-citronellol, reference compound]
10.0

====

Test system: WM266
protocol notes: MTT cell viability assay on metastatic melanoma cell line WM266
Assay type: cell-based, human
condition label: tumor selectivity index = IC50 on C3PV / IC50 on WM266
result type: TSI WM266

Specify reported TSI WM266 for the compound shown: CC(C)=CCC/C(C)=C\CO [Nerol 7, nerol, reference compound]
7.6

Specify reported TSI WM266 for the compound shown: CC(C)=CCC[C@@H](C)CCO [(+)-citronellol (+)-6, (+)-citronellol, reference compound]
3.2

Specify reported TSI WM266 for the compound shown: CC(C)=CCCC(C)CCOC(=O)CCC(=O)OC1OC2OC3(C)CCC4C(C)CCC(C1C)C24OO3 (mixture of isomers) [Hybrid 10c]
7.3

Specify reported TSI WM266 for the compound shown: CC(C)=CCCC(C)CCOC(=O)CCC(=O)OC1OC2OC3(C)CCC4C(C)CCC(C1C)C24OO3 (centres unmarked) [Hybrid 10d]
3.7

Specify reported TSI WM266 for the compound shown: CC(C)=CCC/C(C)=C/CO [Geraniol 8, geraniol, reference compound]
1.0

More entries:
Specify reported TSI WM266 for the compound shown: CC(C)=CCCC(C)CCO[C@H]1O[C@@H]2O[C@@]3(C)CC[C@H]4[C@H](C)CC[C@@H]([C@H]1C)[C@@]24OO3 (some centres unmarked)
260.1

Specify reported TSI WM266 for the compound shown: `CC(C)=CCC[C@@H](C)CCO[C@H]1O[C@@H]2O[C@@]3(C)CC[C@H]4[C@H](C)CC[C@@H]([C@H]1C)[C@@]24OO3`
18.9

====

System: WM266
protocol notes: Cell viability assay in the presence or absence of DFO on WM266
Format: cell-based
condition label: Homo sapiens; WM266, without DFO, treatment time 48 h; read-out: IC50 ± SD WM266 without DFO
result type: IC50 (nM)
Use nM as the unit, but write only the number.

Specify reported IC50 for the compound shown: CC(C)=CCCC(C)=CCOC1OC2OC3(C)CCC4C(C)CCC(C1C)C24OO3 (stereo not shown)
1900

Specify reported IC50 for the compound shown: CC(C)=CCCC(C)CCO[C@H]1O[C@@H]2O[C@@]3(C)CC[C@H]4[C@H](C)CC[C@@H]([C@H]1C)[C@@]24OO3 (stereo partly shown)
1400

Specify reported IC50 for the compound shown: CC(C)=CCCC(C)=CCOC(=O)CCC(=O)OC1OC2OC3(C)CCC4C(C)CCC(C1C)C24OO3 (stereo not shown) [Hybrid 10f]
90

Here is another compound to look at.
Specify reported IC50 for the compound shown: C=C(C)C1CC=C(COC(=O)CCC(=O)OC2OC3OC4(C)CCC5C(C)CCC(C2C)C35OO4)CC1 (stereo not shown) [Hybrid 10b]
20

====

Listed below: TSI WM266 values for each entry.
Tested on: WM266
protocol notes: MTT cell viability assay on metastatic melanoma cell line WM266
Assay type: cell-based, human
condition label: tumor selectivity index = IC50 on C3PV / IC50 on WM266
Lab note: jot the number down without any unit.

Illustrative cases are given below, each with its answer.
Specify reported TSI WM266 for the compound shown: CC(C)=CCCC(C)=CCOC(=O)CCC(=O)OC1OC2OC3(C)CCC4C(C)CCC(C1C)C24OO3 (stereo not shown) [Hybrid 10f]
87.8

Specify reported TSI WM266 for the compound shown: C[C@H]1[C@@H](O)O[C@@H]2O[C@@]3(C)CC[C@H]4[C@H](C)CC[C@@H]1[C@@]24OO3 [DHA 2, dihydroartemisinin, reference compound]
0.4

Specify reported TSI WM266 for the compound shown: CC(C)=CCCC(C)=CCOC(=O)CCC(=O)OC1OC2OC3(C)CCC4C(C)CCC(C1C)C24OO3 (stereo not shown) [Hybrid 10g]
2.4

Specify reported TSI WM266 for the compound shown: CC(C)=CCCC(C)CCOC(=O)CCC(=O)OC1OC2OC3(C)CCC4C(C)CCC(C1C)C24OO3 (stereo not shown) [Hybrid 10e]
3.2

Specify reported TSI WM266 for the compound shown: `CC(C)=CCC/C(C)=C/CO[C@H]1O[C@@H]2O[C@@]3(C)CC[C@H]4[C@H](C)CC[C@@H]([C@H]1C)[C@@]24OO3`
0.5

Specify reported TSI WM266 for the compound shown: C=CCc1ccc(OC(=O)CCC(=O)OC2OC3OC4(C)CCC5C(C)CCC(C2C)C35OO4)c(OC)c1 (stereo not shown) [Hybrid 10a]
2.7

Here is another compound to look at.
Specify reported TSI WM266 for the compound shown: CC(C)=CCC[C@H](C)CCO [(-)-citronellol (-)-6, (-)-citronellol, reference compound]
2.0
